- Test system: HeLa
- assay-procedure: cells
- Format: cell-based, human
- conditions-used: hela cells
measured-parameter: pIC50
Answers are plain numbers, as −log10 of the molar value.

Memo: "C[n+]1ccc(-c2c3nc(c(-c4cc[n+](C)cc4)c4ccc([n-]4)c(-c4cc[n+](C)cc4)c4nc(c(-c5cc[n+](C)cc5)c5ccc2[n-]5)C=C4)C=C3)cc1.[Cl-].[Cl-].[Cl-].[Cl-].[Pt+2]" , reported pIC50: 3.87

###

- system-under-test: human telomerase (Homo sapiens, UniProt O14746)
- Sequence (O14746 whole entry): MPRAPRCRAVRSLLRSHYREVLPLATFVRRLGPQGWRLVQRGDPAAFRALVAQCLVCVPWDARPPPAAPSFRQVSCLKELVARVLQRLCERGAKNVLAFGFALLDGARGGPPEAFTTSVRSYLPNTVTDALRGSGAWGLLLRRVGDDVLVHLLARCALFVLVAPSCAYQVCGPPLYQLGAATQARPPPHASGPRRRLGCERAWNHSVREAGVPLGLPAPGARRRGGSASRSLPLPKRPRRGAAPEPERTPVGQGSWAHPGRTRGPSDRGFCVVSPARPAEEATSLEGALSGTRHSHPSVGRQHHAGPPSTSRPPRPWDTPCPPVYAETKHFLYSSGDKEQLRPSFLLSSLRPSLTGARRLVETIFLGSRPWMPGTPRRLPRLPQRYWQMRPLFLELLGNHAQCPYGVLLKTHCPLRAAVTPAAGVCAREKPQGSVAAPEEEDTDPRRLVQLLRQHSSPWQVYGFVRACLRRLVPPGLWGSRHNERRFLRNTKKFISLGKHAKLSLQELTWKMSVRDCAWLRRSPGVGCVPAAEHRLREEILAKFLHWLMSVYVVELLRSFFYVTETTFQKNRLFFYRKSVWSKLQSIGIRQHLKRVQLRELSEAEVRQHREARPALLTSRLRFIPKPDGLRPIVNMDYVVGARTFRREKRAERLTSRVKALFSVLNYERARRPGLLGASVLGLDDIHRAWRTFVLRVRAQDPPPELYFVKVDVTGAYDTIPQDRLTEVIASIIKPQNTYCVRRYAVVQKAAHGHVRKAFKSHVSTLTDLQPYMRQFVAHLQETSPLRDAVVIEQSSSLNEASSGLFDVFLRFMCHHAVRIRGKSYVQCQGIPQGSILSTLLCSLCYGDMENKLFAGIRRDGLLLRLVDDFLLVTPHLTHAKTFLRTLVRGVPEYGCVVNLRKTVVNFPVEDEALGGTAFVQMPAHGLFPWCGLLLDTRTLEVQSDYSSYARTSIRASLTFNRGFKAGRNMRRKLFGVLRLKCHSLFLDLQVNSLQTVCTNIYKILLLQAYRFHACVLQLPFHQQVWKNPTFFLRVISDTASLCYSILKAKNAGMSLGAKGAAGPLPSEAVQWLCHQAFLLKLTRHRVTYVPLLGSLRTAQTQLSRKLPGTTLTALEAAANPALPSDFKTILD
- assay-procedure: Telomerase inhibition, primer extension assay in HeLa cell extract
- Type: biochemical
- conditions-used: 25 μM; Table 7; read-out: % Inhibition of telomerase
I would appreciate it if you labelled entries class 1 when inhibition at 25 µM is 30% or higher, otherwise class 0.

Solved entries (count: 3):
molecule: C[n+]1ccccc1-c1c2nc(c(-c3ccccc3)c3ccc([nH]3)c(-c3ccccc3)c3nc(c(-c4ccccc4)c4ccc1[nH]4)C=C3)C=C2 [Compound B26]
system-under-test: human telomerase (Homo sapiens, UniProt O14746)
cat: class 0
--
molecule: C[n+]1ccc(-c2c3nc(c(-c4cc[n+](C)cc4)c4ccc([nH]4)c(-c4cc[n+](C)cc4)c4nc(c(-c5ccccc5)c5ccc2[nH]5)C=C4)C=C3)cc1 [Compound B6]
system-under-test: human telomerase (Homo sapiens, UniProt O14746)
cat: class 0
--
molecule: C[n+]1cccc(-c2c3nc(c(-c4ccc[n+](C)c4)c4ccc([nH]4)c(-c4ccccc4)c4nc(c(-c5ccccc5)c5ccc2[nH]5)C=C4)C=C3)c1 [Compound B22]
system-under-test: human telomerase (Homo sapiens, UniProt O14746)
cat: class 0

Textbook exercise: given the entry C[n+]1cccc(-c2c3nc(c(-c4ccc[n+](C)c4)c4ccc([nH]4)c(-c4ccc[n+](C)c4)c4nc(c(-c5ccccc5)c5ccc2[nH]5)C=C4)C=C3)c1 [Compound B10] , state whether its inhibition at 25 µM is greater than or equal to 30%.
class 1

###

- assay-procedure: Cytotoxicity (MTT) NHLF normal lung fibroblasts
- Type: cell-based
- conditions-used: human, nhlf cells; NHLF (normal), 4-7 days; read-out: IC 50 cytotoxicity
- Experimental: The cells were cultured in the presence of the porphyrins incubator for 4-7 days and then treated with 3-(4,5-dimethylthiazol-2-yl)-2,5-diphenyl-tetrazolium bromide (MTT). Formazan concentration was quantitated by absorbance at 570 nm. All porphyrins were obtained from Midcentury, Posen, Ill. The experimental work with porphyrins was performed under minimum exposure to light. All human tumor cell lines and normal human breast cells Hs578Bst were purchased from the American Type Culture Collection. […]
measured-parameter: CC50 (µM)
Answers are plain numbers, in µM.

Given item C[n+]1ccc(-c2c3nc(c(-c4cc[n+](C)cc4)c4ccc([nH]4)c(-c4cc[n+](C)cc4)c4nc(c(-c5cc[n+](C)cc5)c5ccc2[nH]5)C=C4)C=C3)cc1 [TMPyP4] , the value recorded as its CC50 is 13.5

###

- system-under-test: human telomerase (Homo sapiens, UniProt O14746)
- assay-procedure: Telomerase inhibition, primer extension assay in HeLa cell extract
- Assay type: biochemical
- conditions-used: Table 15; concentration fixed at 25 μM; read-out: % Inhibition of telomerase
measured-parameter: inhibition at 25 µM (%)
Numbers only, in %.

molecule: COC(=O)CCC1=C(C)c2cc3[nH]c(cc4nc(cc5[nH]c(cc1n2)c(CCC(=O)OC)c5C)C(C)=C4S(=O)(=O)O)c(C)c3S(=O)(=O)O
readout-number: 24
--
molecule: CCC1=C(C)c2cc3[nH]c(cc4nc(cc5[nH]c(cc1n2)c(C)c5CC)C(C)=C4)c(C)c3CC(=O)OC
readout-number: 0
--
molecule: CCC1=C(C)c2cc3[nH]c(cc4nc(cc5[nH]c(cc1n2)c(C)c5CC)C(C)=C4CCC(=O)OC)c(CCC(=O)OC)c3C
readout-number: 0
--
molecule: COC(=O)CCC1=C(C)c2cc3[nH]c(cc4nc(cc5[nH]c(cc1n2)c(CCC(=O)OC)c5C)C(C)=C4C(C)O)c(C)c3C(C)O (stereo not drawn)
readout-number: 20
--
molecule: COC(=O)CCC1=C(C)c2cc3[nH]c(cc4nc(cc5[nH]c(cc1n2)c(CCC(=O)OC)c5C)C(C)=C4Br)c(C)c3Br
readout-number: 0
--
molecule: CCC1=C(CC)c2cc3[nH]c(cc4nc(cc5[nH]c(cc1n2)c(CC)c5CC)C(CC)=C4CC)c(CC)c3CC
readout-number: 12

Return reported inhibition at 25 µM values for all items listed beneath this line.
1. COC(=O)CCC1=C(C)c2cc3[nH]c(cc4nc(cc5[nH]c(cc1n2)c(C)c5CCC(=O)OC)C(C)=C4C)c(C)c3C
2. C=CC1=C(C)c2cc3[nH]c(cc4nc(cc5[nH]c(cc1n2)c(C)c5C=C)C(C)=C4CCC(=O)OC)c(CCC(=O)OC)c3C
3. COC(=O)CCC1=C(C)c2cc3[nH]c(cc4nc(cc5[nH]c(cc1n2)c(CCC(=O)OC)c5C)C(C)=C4CCC(=O)OC)c(CCC(=O)OC)c3C
4. CCC1=C(C)c2cc3[nH]c(cc4nc(cc5[nH]c(cc1n2)c(C)c5CC)C(C)=C4CCCO)c(CCCO)c3C
5. COC(=O)CCC1=C(C)c2cc3cc(C)c(cc4nc(cc5[nH]c(cc1n2)c(CCC(=O)OC)c5C)C(C)=C4)[nH]3
6. COC(=O)CCC1=C(CC(=O)OC)c2cc3[nH]c(cc4nc(cc5[nH]c(cc1n2)c(CCC(=O)OC)c5CC(=O)OC)C(CC(=O)OC)=C4CCC(=O)OC)c(CCC(=O)OC)c3CC(=O)OC

1. 23
2. 6
3. 33
4. 23
5. 14
6. 19
